# MEASUREMENT DESCRIPTION: physchem
# TEST SETTINGS: pH 7.4 buffer
Note to self: values exactly at 30 µM are met. So solubility thermodynamic at or above 30 µM is met, below is not met.

* CC(C)Oc1cc(O[C@@H](C)Cc2ccccc2)cc(C(=O)Nc2ccc(C(=O)O)cn2)c1 | not met
* COc1cc2c(Nc3ccc(Oc4ccccc4)cc3)c(C#N)cnc2cc1OCCCN1CCOCC1 | not met
* COc1cccc2c1c(NS(=O)(=O)c1ccc(Cl)s1)nn2Cc1cccc(CNC(=O)[C@@H]2COCCN2)c1 | not met
* COCC(C)(C)Oc1cc(O[C@@H](C)Cc2ccccc2)cc(C(=O)Nc2ccc(C(=O)O)cn2)c1 | met
* C[C@H](NC1=NC(=O)[C@@](C)(C(F)(F)F)S1)c1ccccc1F | met

* * *

Each entry below lists one item and its recorded fraction unbound at 5 h value.
# MEASUREMENT DESCRIPTION: in vitro
# TEST SETTINGS: human, plasma
ASSAY METRIC: fraction unbound at 5 h

* COc1ccc(C(CN(C)C)C2(O)CCCCC2)cc1 (stereo not given) | 0.814
* COC(=O)N(C)c1c(N)nc(-c2nn(Cc3ccccc3F)c3ncccc23)nc1N | 0.0854
* COCCN(c1cccnc1)P(=O)(c1ccccc1)c1ccccc1 | 0.0872
* C[C@@H](c1ncncc1F)[C@](O)(Cn1cncn1)c1ccc(F)cc1F | 0.535
* CCCN(c1cccc(C#N)c1)P(=O)(c1ccccc1)c1ccccc1 | 0.0056
* CC(=O)[C@@]1(O)CC[C@H]2[C@@H]3CCC4=CC(=O)CCC4=C3[C@@H](c3ccc(N(C)C)cc3)C[C@@]21C | 0.0049
* CCNC(=O)C[C@H]1N=C(c2ccc(Cl)cc2)c2cc(OC)ccc2-n2c(C)nnc21 | 0.069
* CN1CCN2c3ccccc3CC3(C(=O)N(C)C(=O)N(C)C3=O)C2C1 (stereo not given) | 0.035
* O=C(CCS(=O)(=O)c1ccc(Br)cc1)Nc1ccc2c(c1)OCO2 | 0.0119
* O=C(Nc1ccccc1F)NC1N=C(c2ccccc2)c2ccccc2NC1=O (stereo not given) | 0.0262

* * *

# MEASUREMENT DESCRIPTION: in vitro
# TEST SETTINGS: human, microsomes
ASSAY METRIC: microsomal CLint (µL/min/mg)

• O=c1[nH]c2c(O)ccc([C@@H](O)CNCCc3cccc(CN4CCC(c5ccccc5)CC4)c3)c2s1 = 27
• Cn1c(=O)c(Oc2ccc(F)cc2F)cc2cnc(NC(CCO)CCO)nc21 [PAMAPIMOD] = 4.57
• Cc1c(Sc2ccc(Cl)cc2)c2c(-c3cnccn3)cccc2n1CC(=O)O = 8
• Cc1c(OC2CCN(CC3CCN([C@@H](Cc4ccc(F)cc4)C(=O)O)CC3)CC2)ccc(C#N)c1Cl = 5.5
• CCC(=O)N[C@H]1CC[C@@H](C(=O)N(C)c2ccc(-c3nc4ccccc4o3)cc2)C1 [BI 99179] = 11
• C[C@H](CO)Nc1nc(SCc2ccco2)nc2[nH]c(=O)sc12 = 8.28
• CCCSc1ccc2nc(NC(=O)OC)[nH]c2c1 [ALBENDAZOLE] = 34.7

* * *

The entries below are paired with their reported fraction unbound at 5 h.
# MEASUREMENT DESCRIPTION: in vitro
# TEST SETTINGS: human, plasma, PPB
ASSAY METRIC: fraction unbound at 5 h

- N[C@H]1CCN(c2c(Cl)cccc2/C=C2\SC(=O)NC2=O)C1: 0.0234
- Nc1nc2nc(-c3cccs3)cc(C(F)(F)F)n2n1: 0.201
- CC(C)C[C@H](CO)Nc1nc(SCc2cccc(C#N)c2)nc2nc(N)sc12: 0.0086
- CC(C)Oc1cc(Nc2nc(N[C@@H](C)c3ncc(F)cn3)ncc2Cl)n[nH]1: 0.112
- COc1cc2ncc(C(N)=O)c(Nc3cccc(Cl)c3Cl)c2cc1NCCN1CCCCC1: 0.0209
- COc1cc(C(=O)NC[C@@H](O)CN2CCC(Oc3ccc(Cl)c(Cl)c3)CC2)ccc1N: 0.0032
- Cc1ccc(-c2ccc3c(ccc4sc5c(c43)NC[C@@H](C)NC5=O)n2)cn1: 0.151
- Cc1nc(CSc2nc(N[C@H](C)CO)c3sc(=O)[nH]c3n2)cs1: 0.0086
- O=C(O)/C=C/c1cccc(-c2cnc3[nH]ccc3c2)c1: 0.0219
- O=C(NCc1cccc(OC(F)(F)F)c1)C1c2ccccc2C(=O)N1CCc1ncc(F)cn1 (stereo not given): 0.0447

* * *

# MEASUREMENT DESCRIPTION: physchem
# TEST SETTINGS: pH 7.4 buffer
Form field: solubility thermodynamic (one value per entry).
ASSAY METRIC: solubility thermodynamic (µM)

- Cc1cc(C)cc(-c2[nH]c3sc(C(C)(C)C(=O)N4C5CCC4CC5)cc3c2C(=O)CN2CCN(CC(=O)N3CCCC3)CC2)c1: 70.8
- O=C1NC(=O)C(Cc2cccc(Oc3ccccc3)c2)S1 (stereo not given): 339
- NC(=O)Nc1sc(-c2ccc(OC(F)(F)F)cc2)cc1C(N)=O: 11
- COc1cc2ncnc(NCc3ccccc3)c2cc1OC: 38.9
- Cc1ccc(-c2cn3cccnc3n2)cc1: 251
- COc1cccc(C(=O)Nc2ccc(C)c(-n3cnc4ccc(N5CCN(C)CC5)cc4c3=O)c2)c1: 219
- COCCOc1cc2ncnc(Nc3ncc(CC(=O)Nc4cccc(F)c4)s3)c2cc1OC: 0.6
- C=CC(=O)Nc1ccc2ncnc(Nc3cccc(C)c3)c2c1: 16.6
- COc1cc2c(Nc3cc(CC(=O)Nc4cccc(F)c4F)[nH]n3)ncnc2cc1OCCCN1CCC[C@H]1CO: 1000
- COC(=O)C1=C(C#N)NC(C)=C(C(=O)OC(C)C)C1c1cccc([N+](=O)[O-])c1 (stereo not given): 2.1

* * *

# MEASUREMENT DESCRIPTION: physchem
# TEST SETTINGS: octan-1-ol/water, pH 7.4, LogD7.4
// map logD onto a label; ranges lo: < 1; med: ≥ 1 and < 2; hi: ≥ 2

• CCC(c1nc2ccsc2c(=O)n1Cc1cscn1)N(CCCN)C(=O)c1ccc(C)cc1 (stereo not given) = lo
• N#Cc1ccc(C(=O)N2CCC3(CC2)N=C(N)c2c(F)ccc(F)c2N3)cc1 = lo
• CNCC[C@@H](Oc1ccccc1C)c1ccccc1 = med
• CC[C@H](Nc1ncnc2[nH]cnc12)c1nc2cccc(F)c2c(=O)n1-c1ccccc1 = hi
• O=C(NCCc1ccccc1)c1cc(-n2ncc(=O)[nH]c2=O)ccc1Cl = lo
• C=CC(=O)Nc1ccc2ncnc(Nc3cccc(C)c3)c2c1 = hi
• CC(C)CC(c1ccccn1)n1[nH]c(=O)c2nc3cc(Cl)ccc3c(O)c2c1=O (stereo not given) = med
• c1ccc(CN(Cc2ccccc2)c2nn[nH]n2)cc1 = med
• Cc1ccc2[nH]ccc2c1-c1nc(N2CCOCC2)cc(C2(S(C)(=O)=O)CC2)n1 = med
• CC(C)Oc1cc(Nc2nc(N[C@@H](C)c3ccc(F)cn3)nc(OC(CO)CO)c2Cl)n[nH]1 = hi

* * *

# MEASUREMENT DESCRIPTION: physchem
# TEST SETTINGS: pH 7.4 buffer
# solubility thermodynamic per record follows
ASSAY METRIC: solubility thermodynamic (µM)

• Cc1cc(C)cc(-c2[nH]c3sc(C(C)(C)C(=O)N4C5CCC4CC5)cc3c2CCN2CCN(CC(O)CN3CCNCC3)CC2)c1 (stereo not given) = 427
• Cc1nc(C)c(-c2ccc([C@H]3CC[C@@H](CC(=O)O)CC3)c(Cl)c2)nc1C(N)=O = 200
• O=c1cc(N2CCOCC2)nc2c3ccccc3ccn12 = 44.7
• CNS(=O)(=O)c1ccc(Nc2nccc(-c3cnc(C)n3C)n2)cc1 = 2.7
• COc1cc(N2CCN(C(C)=O)CC2)ccc1Nc1ncc(Cl)c(-c2cnc3cc(CO)ccn23)n1 = 22.9
• NC(=O)Nc1sc(-c2ccc(F)cc2)cc1C(N)=O = 67.6
• Cc1c(C(=O)Nc2ccccc2)sc2ncnc(O)c12 = 22.4
• OC1(c2ccc(Cl)cc2)CCN(Cc2c[nH]c3ccccc23)CC1 = 562
• Cc1ccc(S(=O)(=O)Nc2c(C(=O)N[C@@H](C)C(C)(C)C)c(C)nn2C(C)(C)C)cc1 = 513
• COc1cc2c(Nc3ccc(Br)cc3F)ncnc2cc1OCCCN1CCN(C)CC1 = 41.7

* * *

# MEASUREMENT DESCRIPTION: in vitro
# TEST SETTINGS: human, plasma, PPB
Counter-ions that a name gives are not always drawn.
Each entry below carries its reported fraction unbound at 5 h.
ASSAY METRIC: fraction unbound at 5 h

* CC1N=C(N)N=C(N)N1c1ccc(Cl)cc1 (stereo not given) | 0.747
* COCCCC/C(=N\OCCN)c1ccc(C(F)(F)F)cc1 [FLUVOXAMINE MALEATE] | 0.266
* O=C(Nc1ccc(Cl)c(C(=O)Nc2cccnc2)c1)c1cccc(C(F)(F)F)c1 | 0.003
* O=C(O)CNC(=O)c1ncccc1O | 0.232
* CC(C)(C(=O)c1cccnc1)c1cccnc1 [METYRAPONE] | 0.888
* CC(C)COc1ccc(-c2cc(=O)[nH]c(N)n2)cc1 | 0.0374
* CCOc1cc2ncc(C(N)=O)c(Nc3cccc(Cl)c3Cl)c2cc1N1CCN(C(C)C)CC1 | 0.0146
* CC(=O)Nc1nc(CCc2ccc(NC(=N)N)cc2)cs1 | 0.465
* Cc1ccccc1S(=O)(=O)NC(=O)N1CCC(N2CCC(Oc3ccc(Cl)c(Cl)c3)CC2)CC1 | 0.105
* Cc1nccn1-c1sc(Nc2cnccn2)nc1-c1cccc(C#N)c1 | 0.0437
* CC(C)N(CCCNC(=O)Nc1ccc(C(C)(C)C)cc1)C[C@H]1O[C@@H](n2ccc3c(N)ncnc32)[C@H](O)[C@@H]1O | 0.201
* CCCSc1nc(N)c2ncn([C@@H]3O[C@H](CO)[C@@H](O)[C@H]3O)c2n1 | 0.483
* COc1ccc2ncc(=O)n(CCN3CC[C@@H](NCc4cc5c(cn4)OCCO5)[C@H](O)C3)c2c1 | 0.179
* COc1ccc(N(C(=O)c2ccccc2)C(C(=O)NC2CCCC2)c2ccccc2F)c(OC)c1 (stereo not given) | 0.0033
* FC(F)(F)Oc1ccc(-c2nnc(CCCCc3ccc4cccnc4n3)o2)cc1Cl | 0.0008
* CC(C)[C@H](NC(=O)C[C@H](NC(=O)/C=C/c1ccccc1)c1ccccc1)C(=O)[C@@H]1C(=O)NC(=O)[C@H]1C | 0.016
* CCOc1nc2ccc(OCCC3CCN(c4ccc(C)nn4)CC3)cc2o1 | 0.0028
* CC(=O)Nc1cccc2c1c(Oc1ccc(Cl)cc1)c(C)n2CC(=O)O | 0.124
* CCc1nc2ccc(C(=O)NCc3ccc4c(c3)OCO4)cn2c1N(C)Cc1cccs1 | 0.0035
* Cc1cn([C@H]2CCCN(S(=O)(=O)c3ccc(C(N)=O)c(Oc4cccc(Cl)c4)c3)C2)c(=O)[nH]c1=O | 0.0358
